experiment: qHTS Assay for Lipid Storage Modulators (AID 1519)
applied conditions: Drosophila S3 cells, BODIPY lipid droplet/cell ratio, laser cytometry; measured here: lipid channel max response; cells loaded with oleic acid
Results filed as inconclusive are left out.

| molecule | unit of measurement | max response |
| --- | --- | --- |
| CCCN(CCC)CCc1c[nH]c2ccc(C(N)=O)cc12 | % | -33.9 |
| O=C1CCO1 | % | 16.6 |
| CC(N)Cc1ccc(O)cc1 (stereo not given) | % | 13.9 |
| Cc1[nH]c2ccc(O)cc2c1CCN | % | -4.28 |
| COC(=O)N1CCN(C(=O)Cc2ccc(Cl)c(Cl)c2)C(CN2CCCC2)C1 (stereo not given) | % | 7.35 |
| CC1OC1P(=O)(O)O (stereo not given) | % | 19.6 |
| CN1[C@@H]2CC[C@H]1CC(OC1c3ccccc3CCc3ccccc31)C2 (stereo not given in full) | % | -11.3 |
| CCCN(CCC)C1Cc2cc(OC)c(OC)cc2C1 | % | -31.4 |
| C=CCC1(C(C)CCC)C(=O)N=C(S)NC1=O (stereo not given) | % | 20.4 |
| NNC(N)=O | % | -7.06 |
| CN1C2CCC1CC(OC(c1ccccc1)c1ccccc1N)C2 (stereo not given) | % | -1.25 |
| CCS(=O)(=O)Nc1cccc(C(=C2CCCCC2)c2cnc[nH]2)c1 | % | 58 |
| COc1ccc2[nH]c3c(c2c1)CCNC3 | % | -46.2 |
| C=CCN1CC[C@]23c4c5ccc(O)c4O[C@H]2/C(=N/NC(=O)c2ccccc2)CC[C@@]3(O)[C@H]1C5 | % | -20.5 |
| [N-]=[N+]=CC(=O)OCC(N)C(=O)O (stereo not given) | % | 29.9 |
| Cc1cc(C)cc(C(=O)OC2C[C@H]3CC[C@@H](C2)N3C)c1 (stereo not given in full) | % | 4.22 |
| CCC(=O)O[C@@](Cc1ccccc1)(c1ccccc1)[C@@H](C)CN(C)C | % | -7.97 |
| CN(C(=O)Cc1ccc(Cl)c(Cl)c1)C(CN1CCCC1)c1cccc(OCC(=O)O)c1 (stereo not given) | % | 13 |
| COc1ccc2c(c1OC)C(=O)OC2C1c2cc3c(cc2CCN1C)OCO3 (stereo not given) | % | 66.1 |
| CN1CC[C@@]2(C)c3cc(O)ccc3N(C)C12 (stereo not given in full) | % | -11.4 |

###

Tested on: CP237
experiment: qHTS profiling for inhibitors of Plasmodium falciparum proliferation (AID 504749); also: nearly all actives have a fitted effect of over 60% in size
applied conditions: P. falciparum in erythrocytes, SYBR Green DNA, 72 h; series mostly up to 28.7 µM
Procedure: NIH National Institute of Allergy and Infectious Diseases [NIAID] NIH Chemical Genomics Center [NCGC] […] Because mature erythrocytes lack DNA, only Plasmodium-derived DNA is detected. NCGC Assay Protocol Summary: The SYBR Green viability assay was adapted from a method described previously (Plouffe et al., 2008). […] The following morning, fluorescence intensity at 485(14) nm excitation and 535(25) nm emission wavelengths was measured on an EnVision (Perkin Elmer) plate reader. […]
Inconclusive results are not listed. Activity calls are given as the source filed them. The call rests on the fitted dose curve; in most records, active means well fitted inhibition curve with a large enough effect; inconclusive means small, poorly fitted or top-dose-only effect; inactive means flat fitted curve, though single readings scatter.
Classes used: t = active, f = inactive

| compound | label class |
| --- | --- |
| O=CC=O | f |
| COc1ccc2c(c1OC)C(=O)OC2C1c2cc3c(cc2CCN1C)OCO3 (centres undefined) | f |
| CCOC(=O)c1ccccc1C(=O)OCC | f |
| CCCN1CCCC2Cc3[nH]ncc3CC21 (centres undefined) | f |
| C[C@]12CCC(=O)C[C@@H]1CC[C@@H]1[C@@H]2CC[C@]2(C)[C@@H](O)CC[C@@H]12 | f |
| [N-]=[N+]=CC(=O)OCC(N)C(=O)O (centres undefined) | f |
| CC(C)Nc1ccc(Nc2ccccc2)cc1 | t |
| O=C1CCCCC1CN1CCCCC1 (centres undefined) | f |
| O=C(CCl)c1ccc(Oc2ccc(C(=O)CCl)cc2)cc1 | f |
| CCCCCCCCOC(=O)c1ccccc1C(=O)OCCCCCCCC | f |
| CC(C)(C)c1cc(O)ccc1O | t |
| Cn1sc(Cl)cc1=O | f |
| O=C(NCNC(=O)NC1C(=O)NC(=O)N1CO)NC1C(=O)NC(=O)N1CO (centres undefined) | f |
| CCC(N)Cc1c[nH]c2ccccc12 (centres undefined) | f |

###

Test system: CP247
experiment: qHTS profiling for inhibitors of Plasmodium falciparum proliferation (AID 504749); also: nearly all actives have a fitted effect of over 60% in size
applied conditions: P. falciparum in erythrocytes, SYBR Green DNA, 72 h; series mostly up to 28.7 µM
Records with an inconclusive call do not appear. The source made the active and inactive calls. Calls come from the whole dose curve; as a rule, active = well fitted inhibition curve with a large enough effect; inconclusive = small, poorly fitted or top-dose-only effect; inactive = flat fitted curve, though single readings scatter.
Classes used: active, inactive

| compound | test system | label class |
| --- | --- | --- |
| O=C1CCO1 | CP247 | inactive |
| CC(C)CCON=O | CP247 | inactive |
| CCC1(CC)C(=O)NC(=O)N(C)C1=O | CP247 | inactive |
| CNC(=O)OCC[N+](C)(C)C | CP247 | inactive |
| O=C1CN(O)C(c2ccccc2)=c2cc(Cl)ccc2=N1 | CP247 | inactive |
| CCON=O | CP247 | inactive |
| N#CN | CP247 | inactive |
| S=C(S)N1CCNCC1 | CP247 | inactive |
| O=C1CCCCC1CN1CCCCC1 (stereo unspecified) | CP247 | inactive |
| FC(F)OC(F)(F)C(F)Cl (stereo unspecified) | CP247 | inactive |
| O=[N+]([O-])C(Br)(CO)CO | CP247 | inactive |
| CCCC(C)(COC(N)=O)COC(=O)NC1CC1 (stereo unspecified) | CP247 | inactive |
| O=C(O)C(Cl)(Cl)Cl | CP247 | inactive |
| CCC(N)Cc1c[nH]c2ccccc12 (stereo unspecified) | CP247 | inactive |
| O=c1[nH]cc(N(CCCl)CCCl)c(=O)[nH]1 | CP247 | inactive |
| ClC(Cl)(Cl)Cl | CP247 | inactive |
| CCC(=O)O[C@@](Cc1ccccc1)(c1ccccc1)[C@@H](C)CN(C)C | CP247 | inactive |
| O=C(NC(=O)c1c(F)cccc1F)Nc1ccc(Cl)c(Oc2ncc(C(F)(F)F)cc2Cl)c1 | CP247 | inactive |
| O=[N+]([O-])c1ccc(F)c([N+](=O)[O-])c1 | CP247 | inactive |
| O=C(CS(=O)C(c1ccccc1)c1ccccc1)NO (stereo unspecified) | CP247 | inactive |
| COc1ccc2c3c1O[C@H]1C(=O)CC[C@H]4[C@@H](C2)N(C)CC[C@]314 | CP247 | inactive |
| ClC=C(Cl)Cl | CP247 | inactive |
| CCC1(C)CC(=O)NC(=O)C1 | CP247 | inactive |
| CCN(CC)C(=O)/C(Cl)=C(\C)OP(=O)(OC)OC | CP247 | inactive |
| C[C@]12CCC(=O)C[C@@H]1CC[C@@H]1[C@@H]2CC[C@]2(C)[C@@H](O)CC[C@@H]12 | CP247 | inactive |
| CN1c2ccccc2C(NCCCCCCC(=O)O)c2ccc(Cl)cc2S1(=O)=O (stereo unspecified) | CP247 | inactive |
| O=CC=O | CP247 | inactive |
| N#CC(C#N)=Cc1cc(O)c(O)c(O)c1 | CP247 | active |
| CN1C2CCC1CC(OC(c1ccccc1)c1ccc(Cl)cc1)C2 (stereo unspecified) | CP247 | active |
| Clc1ccc(Cl)cc1 | CP247 | inactive |
| [N-]=[N+]=CC(=O)OCC(N)C(=O)O (stereo unspecified) | CP247 | inactive |
| CCOc1ccc2c3c1O[C@H]1[C@@H](O)C=C[C@H]4[C@@H](C2)N(C)CC[C@@]341 | CP247 | inactive |
| CCCCNCC(O)c1ccc(O)cc1 (stereo unspecified) | CP247 | inactive |
| O=[N+]([O-])c1cc(I)c(O)c(I)c1 | CP247 | inactive |
| Cc1sc2ccccc2c1CC1=NCCN1 | CP247 | inactive |
| CCC1C(C)=NN=C(c2ccc(OC)c(OC)c2)c2cc(OC)c(OC)cc21 (stereo unspecified) | CP247 | inactive |
| C#CC(C)(O)CC (stereo unspecified) | CP247 | inactive |
| C[N+]1(C)C2CCC1CC(OC(=O)c1c[nH]c3ccccc13)C2 (stereo unspecified) | CP247 | inactive |
| CCC1(c2ccccc2)C(=O)NC(=O)NC1=O | CP247 | inactive |
| N#CC1(N2CCCCC2)CCCCC1 | CP247 | inactive |
| CC(C)Nc1ccc(Nc2ccccc2)cc1 | CP247 | active |
| CCNC(C)Cc1cccc(C(F)(F)F)c1 (stereo unspecified) | CP247 | inactive |
| C[CH2][Hg][S]c1ccccc1C(=O)O | CP247 | active |
| O=C(OCCN1CCCCC1)C(O)(c1ccccc1)c1ccccc1 | CP247 | inactive |
| O=C1CC[C@@]2(O)C3Cc4ccc(O)c5c4C2(CCN3CC2CC2)[C@H]1O5 (stereo partly specified) | CP247 | inactive |
| Clc1ccc(C2(Cn3cncn3)OCCO2)c(Cl)c1 | CP247 | inactive |

Values compiled from PubChem BioAssay (NCATS).
